From: patent US20240116985A1

Record form. Attribute: chromatographic logD. Fill in for each entry.
- ASSAY_NOTES: CHI Log D procedure
- Type: physicochemical
- RUN_PARAMETERS: pH 7.4, CHI Log D
Reply: number alone, nothing else.

Complete the entry with chromatographic logD for CC(=O)N1CCC[C@]12CC=CCCCC1(CCCC=CCCCCCC[C@@](C)(C(=O)N[C@@H](Cc3ccccc3Cl)C(=O)N[C@@H](Cc3csc4ccccc34)C(=O)N[C@@H](C(N)=O)[C@H](C)O)NC(=O)[C@H](CC(C)C)NC(=O)[C@H](Cc3ccccc3)NC(=O)[C@H](C)NC(=O)[C@H](C)NC(=O)[C@H](CC(=O)O)NC(=O)[C@H](CC(=O)O)NC1=O)NC(=O)[C@H](CC(C)(C)C)NC(=O)[C@H](CC(=O)O)NC2=O (stereo partly drawn)
3.61

Complete the entry with chromatographic logD for CC(=O)N1CCC[C@]12CC=CCCCC1(CCCC=CCCCCCC[C@@](C)(C(=O)N[C@@H](Cc3ccccc3)C(=O)N[C@@H](Cc3csc4ccccc34)C(=O)N[C@@H](C)C(N)=O)NC(=O)[C@H](CCC(N)=O)NC(=O)[C@H](Cc3ccccc3)NC(=O)[C@H](C)NC(=O)[C@H](C)NC(=O)[C@H](CC(=O)O)NC(=O)[C@H](CC(=O)O)NC1=O)NC(=O)[C@H](CCO)NC(=O)[C@H](CC(=O)O)NC2=O (stereo partly drawn)
2

Complete the entry with chromatographic logD for CC(=O)N1CCC[C@]12CC=CCCCC1(CCCC=CCCCOC(=O)N3CC[C@@](C(=O)N[C@@H](Cc4ccccc4Cl)C(=O)N[C@@H](Cc4csc5ccccc45)C(=O)N[C@@H](CO)C(N)=O)(C3)NC(=O)[C@H](CC(N)=O)NC(=O)[C@H](Cc3ccccc3)NC(=O)[C@H](C)NC(=O)[C@H](C)NC(=O)[C@H](CC(=O)O)NC(=O)[C@H](CC(=O)O)NC1=O)NC(=O)[C@H](Cc1ccccc1)NC(=O)[C@H](CC(=O)O)NC2=O (stereo partly drawn)
2.19
